biological target: RSV postfusion F (postF), F ΔFP (Respiratory syncytial virus, UniProt P03420 26-513); assay: BLI, IgG on anti-human IgG sensor, 100 nM antigen
PROPERTY NAME: Kd (nM)
Your answer is read as nM, so omit the unit and give the number.

Worked cases, answers included:
{"BINDER": "ADI-41576 (antibody, V domains shown, also called Ab 851; Antibody Number 851) VH: QVTLKESGPTLVKPTQTLTLSCSFSGFSLSAYAVGVGWIRQPPGKALEWLALIYWDDDKRYSPSLETRLTITKDTSKNQVVLTMTKMDPVDTATYYCVYSYNGYYEYMDVWGNGTTVTVSS VL: DIVMTQSPATLSLSPGERATLSCRASQSVSNYLAWYQQKPGQAPRLLISGASNRATGIPDRFSGSGSGTDFTLTITTPEPEDFAVYYCQQRNAWPRTFGQGTKVEIK", "Kd, nM": 1.43}
{"BINDER": "ADI-41807 (antibody, V domains shown) VH: EVQLLESGPALVKPTQTLTLTCTFSGFSLTTTRMSVSWIRQPPGKALEWLARIDWDDDKYYSTSLKTRLTISKDTSKNQVVLTMTNMDPVDTATYFCARVNVYAANGYYSYYLDYWGQGTLVTVSS VL: DIVMTQTPSSLSASVGDRVTITCRTSQSSSRYLNWYQKEPGKAPRLLIYLASALRSGVPSRFSGSGSGTDFTLTISSLQSEDFATYYCQQTYSIPWTFGQGTKVEIK", "Kd, nM": 1.19}
{"BINDER": "ADI-41557 (antibody, V domains shown, also called Ab 839; Antibody Number 839) VH: EVQLLESGPGLVKPSETLSLTCNVSGGSISSYYWSWIRQSPGKGLEWIGHIYDTGYTNYNPSLKSRVTMSVDTSKNRFSLKLDSVTAADTAVYYCARGRGWRNLYNWFDPWGQGTLVTVSS VL: DIVMTQSPATLSVSPGERATLSCRTSQSFSSMLAWYQQKPGQAPRLLIYGASTRATGIPARFSGSGSATEFTLTISNLQSEDVAVYYCQQYNSWPLTFGGGTKVEIK", "Kd, nM": 86.1}

Provide measured Kd value, entry: ADI-41580 (antibody, V domains shown, also called Ab 854; Antibody Number 854) VH: QVQLQQWGAGLLKPSETLSLTCAVYGGSFSGYYWSWIRQPPGKGLEWIGEMNHSGGSNYNPSFKSRVTISVDTSKKYFSLNLSSVTAADTAIYYCARTPFYYESTGYYYYYYGMDVWGQGTTVTVSS VL: DIVMTQTPDSLAVSLGERATINCKSSQSVSHSSNNKNYLSWYQQKPGQPPKLLIYWASIRESEAPDRFTGSGSGTDFTLTISSLQAEDVAVYYCQQYYTAPITFGQGTRLEIK
1.17
